# TARGET ENTITY: porcine pancreatic elastase (EC.3.4.21.36) (Sus scrofa)
# Sequence (P00772 27-266): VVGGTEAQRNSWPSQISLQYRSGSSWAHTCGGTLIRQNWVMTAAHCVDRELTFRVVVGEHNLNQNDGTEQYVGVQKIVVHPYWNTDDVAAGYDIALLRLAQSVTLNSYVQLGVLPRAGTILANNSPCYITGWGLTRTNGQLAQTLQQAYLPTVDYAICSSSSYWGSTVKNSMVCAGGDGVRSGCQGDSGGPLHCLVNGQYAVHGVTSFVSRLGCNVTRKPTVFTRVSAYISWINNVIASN
# ASSAY METHOD TEXT: Elastase inhibition assay (SANA substrate)
# Type: biochemical
# CONDITION INFO: mean ± SEM, triplicate; read-out: IC50 elastase inhibition
Quick reference: IC50 of the listed items.

# COMPOUND, TARGET ENTITY, IC50 / µM
records = [
    ("C[C@H]1[C@H](C)CC[C@]2(C(=O)O)CC[C@]3(C)C(=CC[C@@H]4[C@@]5(C)CC[C@H](O)C(C)(C)[C@@H]5CC[C@]43C)[C@H]12 [Ursolic acid, ursolic acid, reference compound]", "porcine pancreatic elastase (EC.3.4.21.36) (Sus scrofa)", 34.3),
    ("Oc1cc(O)cc(CCCCCCCC=CCCCCCCCc2cc(O)cc(O)c2)c1 [Bisresorcinol]", "porcine pancreatic elastase (EC.3.4.21.36) (Sus scrofa)", 33.2),
]
